# study system: T1, L-selectin (LS-Rg) (Homo sapiens, UniProt P14151 P14151:39-332)
# T1 chain: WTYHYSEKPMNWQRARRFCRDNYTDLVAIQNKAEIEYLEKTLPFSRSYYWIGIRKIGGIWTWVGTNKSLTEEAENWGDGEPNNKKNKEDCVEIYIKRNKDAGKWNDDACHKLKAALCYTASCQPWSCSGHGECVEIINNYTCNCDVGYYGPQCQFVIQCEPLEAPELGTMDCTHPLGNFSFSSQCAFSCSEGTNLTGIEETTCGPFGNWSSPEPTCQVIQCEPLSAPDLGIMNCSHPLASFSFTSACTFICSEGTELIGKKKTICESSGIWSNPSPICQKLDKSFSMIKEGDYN
# experimental protocol: filter; room temp; 3.7 nM at 37 C
# experimental parameters: tags: human IgG2 Fc fusion (provided by A. Varki); label: 32P; hairpin
observed property: Kd (pM)

[[record]]
binder = "204 (ssDNA) DNA: CTACCTACGATCTGACTAGCGGAACACGTGAGGTTTACAAGGCACTCGACGTAAACACTTGCTTACTCTCATGTAGTTCC"
reading = 100

